measurement_target: Histone-lysine N-methyltransferase SETD7 (Homo sapiens)
Sequence (Q8WTS6 whole entry): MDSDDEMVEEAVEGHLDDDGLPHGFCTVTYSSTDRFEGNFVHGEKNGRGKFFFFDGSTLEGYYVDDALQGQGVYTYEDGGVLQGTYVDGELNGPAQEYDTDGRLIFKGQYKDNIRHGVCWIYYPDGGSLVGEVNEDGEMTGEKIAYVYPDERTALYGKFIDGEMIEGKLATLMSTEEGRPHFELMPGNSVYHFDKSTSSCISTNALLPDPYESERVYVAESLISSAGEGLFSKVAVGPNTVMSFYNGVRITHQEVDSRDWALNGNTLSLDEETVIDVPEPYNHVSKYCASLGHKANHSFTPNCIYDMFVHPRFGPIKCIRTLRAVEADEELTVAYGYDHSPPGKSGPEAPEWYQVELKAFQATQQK
reported_property: IC50

> print(dat)
                                   compound    result
1   O=c1c(O)c(-c2ccc(O)cc2)oc2cc(O)cc(O)c12  > 200 µM
2  COc1ccc(-c2oc3cc(O)cc(O)c3c(=O)c2O)cc1 [KAEMPFERIDE]  > 200 µM
3  O=C1C[C@@H](c2ccc(O)c(O)c2)Oc2cc(O)cc(O)c21  > 200 µM
